Cited source: PubChem BioAssay (NCI)

test system: HOP-62 NSCLC; experiment: NCI-60 one-dose screen, 48 h (100 = growth as untreated, 0 = no growth, -100 = all killed); conditions: 10 µM unless noted
About 83,000 compounds went through this panel and 20% of them were active in at least one assay; those are over-represented in the sample as a whole.
value_type: growth (%)
One number for each entry, in %.

Nc1[nH]nc(Nc2ccccc2)c1-c1nc2ccccc2s1: 28.6

Pending molecule:
## Input Which growth value belongs to `C[C@@H]1O[C@@H](O[C@H]2[C@@H](OC(=O)[C@]34CCC(C)(C)C[C@H]3C3=CC[C@@H]5[C@@]6(C)C[C@H](O)[C@H](O[C@@H]7O[C@H](CO)[C@@H](O)[C@H](O)[C@H]7O)[C@@](C)(CO)[C@@H]6CC[C@@]5(C)[C@]3(C)C[C@H]4O)OC[C@@H](O)[C@@H]2O)[C@H](O)[C@H](O[C@@H]2OC[C@@H](O)[C@H](O[C@@H]3OC[C@](O)(CO)[C@H]3O[C@@H]3OC[C@@H](O)[C@H](O)[C@H]3O)[C@H]2O)[C@H]1O[C@@H]1OC[C@](O)(CO)[C@H]1O` ?
## Output 74
